Test system: PC-3 (androgen independent prostate cancer cells)
Test: Anti-proliferation activity against PC-3 cells
Type: cell-based
Conditions: Homo sapiens, PC-3; Table 3; n = 3; read-out: IC50 PC-3
Measured IC50 of individual entries
Numeric only. Scale: µM

CO[C@@H]1[C@@H](O)[C@@H](O)[C@H](Oc2ccc3cc(NC(=O)Cc4ccccc4)c(=O)oc3c2C)OC1(C)C [compound 22]: 43.3
CO[C@@H]1[C@@H](O)[C@@H](O)[C@H](Oc2ccc3cc(NC(=O)CCc4ccccc4)c(=O)oc3c2C)OC1(C)C [compound 23]: 22

Continue with the next molecule.
Query: If you can, please state the reported IC50 value of CO[C@@H]1[C@@H](O)[C@@H](O)[C@H](Oc2ccc3cc(NC(=O)/C=C/c4ccccc4)c(=O)oc3c2C)OC1(C)C [compound 25] .
Result: 3.9

* * *

Measured IC50 of individual entries
Tested on: SkBr3 (Her2 overexpressing breast cancer cells)
Experiment: Anti-proliferation activity against SkBr3 cells (MTS/PMS)
Format: cell-based
Details: Homo sapiens, SK-BR-3; Table 20, indole-2-carboxamide analogues with noviose replacements; read-out: IC50, SKBr3

Query: If you can, please state the reported IC50 value of Cc1c(OC2CCN(C)CC2)ccc2cc(NC(=O)c3cc4ccccc4[nH]3)c(=O)oc12 .
Result: 480 nM

Query: If you can, please state the reported IC50 value of COc1cc2cc(NC(=O)c3cc4ccccc4[nH]3)c(=O)oc2c(C)c1OC1CCN(C)CC1 .
Result: 110 nM

Query: If you can, please state the reported IC50 value of COc1cc2cc(NC(=O)c3cc4ccccc4[nH]3)c(=O)oc2c(C)c1OC1CCCN(C)C1 (stereo not drawn) .
Result: 150 nM

* * *

Test system: LNCaP (androgen sensitive prostate cancer cells)
Assay: Anti-proliferation activity against LNCaP cells
Type: cell-based
Conditions: Homo sapiens, LNCaP; Table 7; 72 hours, MTS/PMS; mean ± standard deviation; read-out: Anti-proliferation activity LnCaP
Measured IC50 of individual entries
Numeric only. Scale: µM

COc1cccc(-c2cc(C(=O)Nc3cnc4cc(O[C@@H]5OC(C)(C)[C@H](OC)[C@@H](O)[C@H]5O)ccc4c3)ccc2OC)c1 [42b]: 14.2

Continue with the next compound.
Query: If you can, please state the reported IC50 value of COc1cccc(-c2cc(C(=O)Nc3ccc4cc(O[C@@H]5OC(C)(C)[C@H](OC)[C@@H](O)[C@H]5O)ccc4c3)ccc2OC)c1 [42d] .
Result: 19.6

* * *

Measured pIC50 of individual entries
System: PL45 (pancreatic cancer cells)
Assay: Anti-proliferation activity against PL45 cells
Type: cell-based
Details: Table 4, biaryl analogues, n = 3
Remember, pIC50 is on a log scale: it is -log10 of the molar concentration.

Check out these entries, answers already filled in.
COc1ccc(C(=O)Nc2cc3ccc(O[C@@H]4OC(C)(C)[C@H](OC)[C@@H](O)[C@H]4O)c(C)c3oc2=O)cc1-c1cccc(O)c1: 5.96
COc1cccc(-c2cc(C(=O)Nc3cc4ccc(O[C@@H]5OC(C)(C)[C@H](OC)[C@@H](O)[C@H]5O)c(C)c4oc3=O)ccc2OC)c1: 5.70

Continue with the next molecule.
Query: If you can, please state the reported pIC50 value of COc1ccc(C(=O)Nc2cc3ccc(O[C@@H]4OC(C)(C)[C@H](OC)[C@@H](O)[C@H]4O)c(C)c3oc2=O)cc1-c1ccc(C)cc1 .
Result: 5.85

* * *

Tested on: SkBr3 (Her2 overexpressing breast cancer cells)
Assay: Anti-proliferation activity against SkBr3 cells (MTS/PMS)
Assay type: cell-based
Conditions: Homo sapiens, SK-BR-3; Table 19, 7-oxyalkylamino and 7-oxypiperidinyl analogues; read-out: IC50, SKBr3
IC50 vs 1000 nM: less than gives Fulfilled; not less than gives Not fulfilled.

Worked cases, answers included:
CC(C)=CCc1cc(C(=O)Nc2cc3ccc(OC4CCN(C)CC4)c(C)c3oc2=O)ccc1O [31a, KU-398]: Not fulfilled
CC(C)=CCc1cc(C(=O)Nc2cc3ccc(OCCCN(C)C)c(C)c3oc2=O)ccc1O [31f, KU-407]: Not fulfilled
CC(C)=CCc1cc(C(=O)Nc2cc3ccc(OCCN(C)C)c(C)c3oc2=O)ccc1O [31e, KU-422]: Not fulfilled
CC(C)=CCc1cc(C(=O)Nc2cc3ccc(OC4CCCN(C)C4)c(C)c3oc2=O)ccc1O (centres unmarked) [31c, KU-418]: Not fulfilled
CC(C)=CCc1cc(C(=O)Nc2cc3ccc(OC4CCCNC4)c(C)c3oc2=O)ccc1O (centres unmarked) [31d, KU-420]: Not fulfilled
COc1c(OC2CCN(C)CC2)ccc2cc(NC(=O)c3ccc(OCCN(C)C)c(CC=C(C)C)c3)c(=O)oc12 [KU-459]: Fulfilled

Query: Is IC50 strictly under 1000 nM for the entry CC(C)=CCc1cc(C(=O)Nc2cc3ccc(OC4CCNCC4)c(C)c3oc2=O)ccc1O [31b, KU-416] ?
Result: Fulfilled

Query: Is IC50 strictly under 1000 nM for the entry CC(C)=CCc1cc(C(=O)Nc2cc3ccc(OC4CCN(C)CC4)c(C)c3oc2=O)ccc1OC1CCN(C)CC1 [KU-458] ?
Result: Fulfilled
